target desc: T1, human MSLN-R3-his protein (human, UniProt Q13421 487-598)
T1 construct: Region 3 of human MSLN, His-tagged; also called human MSLN-R3 protein; hMSLN-R3-his; not shown: His tag
T1 sequence (Q13421 495-606): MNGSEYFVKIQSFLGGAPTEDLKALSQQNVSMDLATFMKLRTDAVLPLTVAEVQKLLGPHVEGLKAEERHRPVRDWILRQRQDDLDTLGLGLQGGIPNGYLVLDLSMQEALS
protocol text: ELISA, coated MSLN-R3
measured property: OD450 at 100 nM (OD450)
The reply should be a number in OD450, with the unit left off.

Below are worked cases with known answers.
• S009-F1.56.1 (antibody, human IgG1, kappa, V domains shown, Human-murine chimeric antibody, human IgG1/kappa constant regions) VH: EVQLQQSGAEVVKPGASVKLSCTASGFNIRHTYMHWVKQRPEQGLEWIGRIDPANGNTEYDPKFQGKATITADTSSNTAYLQLSSLTSEDTAVYYCARDGWYIDVWGAGTTVTVSS VL: DIVMSQSPSSLAVSVGEKVTMSCKSSQSLLYSNNQKNYLAWYQQKPGQSPKLLIYWASTRESGVPDRFTGSGSGTDFTLTISSVKAEDLAVYYCQRYYSYPWTFGGGTKLEIKR = 0.06
• S009-F1.25.10 (antibody, human IgG1, kappa, V domains shown, Human-murine chimeric antibody, human IgG1/kappa constant regions) VH: EVQLQQSGPELVKPGASLKISCKASGYSFTDYTMNWVKQSHGKNLEWIGLFNPYNGGISYNQKFKGKATLTVDKSSNTAYMELLSLTSDDSAVYFCARDGRGGFYAMDYWGQGTSVTVSS VL: DIQMTQTTSSLSASLGDRVTISCRASQDISIYLNWYQQKPDGPVKLLIYYTSRLHSGVPSRFSGSGSGTDFSLTISNLEQEDIATYFCQQGYTLPPWTFGGGTKLEIKR = 2.81
• S009-F1.59.1 (antibody, human IgG1, kappa, V domains shown, Human-murine chimeric antibody, human IgG1/kappa constant regions) VH: EVKLEGSGGGLVQPGGSMMLSCVATGFTFSSYWMNWVRQSPDRGLEWVAEIRLKSNGFAAFYAESVKGRFTISRDDSKSSVYLQMNNLRTEDTGIYYCTYFVHWGQGILVTVSE VL: DIVLTQSPTSLAVSLGQRATISCRTSESVEYFGTILIQWYQQKPGQPPKLLIFGASNVESGVPARFSGSGSGTDFSLNIHPVEEEDIAMYFCQQNRKVPYTFGGGTTLELKR = 2.51
• S009-F1.62.9 (antibody, human IgG1, kappa, V domains shown, Human-murine chimeric antibody, human IgG1/kappa constant regions) VH: EVQLQQSGADLVKPGASVKLSCTVFGLNFKDTFMHWVRQRPEQGLEWIGRIDPANDNSIYGPKFQDKATITADTSSNTAYLHLSSLTSEDTAVYYCLYFDNWGHGTTLTVSS VL: DIVMTQAASSEPVTPGESVSISCRSDKSLLHSNGHNYLYWFLQRPGQSPHLLIYRMSNLASGVPDRFSGSGSGTAFTLRISRVEAEDVGVYYCMQHLEYPLTFGAGTKLELKR = 2.32

response.value for S009-F1.57.1 (antibody, human IgG1, kappa, V domains shown, Human-murine chimeric antibody, human IgG1/kappa constant regions) VH: EAQLQQSGAVFVKPGASVKLSCTASGFSSKDIFLHWVKQRPEQGLEWIGRIDPASDNTIYDPKFQDRATITSDRSSNTAYLQFSSLTSEDTAVYFCLYFDFWGQGTTLTVSS VL: DIVMTQATPSISVTPGESVSISCRSSESLLHSNGNTYLYWFLQRPGQSPQLLIYRMSNLASGVPDRFSVSGSGTAFTLRISRVEAEDVGVYYCMQHLEYPLTFGAGTKLELKR (field: OD450 at 100 nM) = 2.25

response.value for S009-F1.35.24 (antibody, human IgG1, kappa, V domains shown, Human-murine chimeric antibody, human IgG1/kappa constant regions) VH: EVQLQQSEPELVKPGASVRISCKASGYSFTDYYMHWVKQSPENRLEWIGEINPSTGGTSYNPKFKDKATLTVDKSSSTAYMQLKSLTSEESAVYYCTRYHYYGSSSYVMDYWGQGTSVTVSS VL: QIVLTQSPAILSASPGERVTMTCSASSSVYHMHWFQQKSGTSPKRWVYDTSKLASGVPARFSGSGSGTSYSLTISSMEAEDAATYYCQHWRTNPLTFGAGTKLELKR (field: OD450 at 100 nM) = 0.06

response.value for S009-F1.2.12 (antibody, human IgG1, kappa, V domains shown) VH: QVQLKQTGPGLVQPSQSLSITCTVSGFSLTNYAVHWVRQSPGKGLEWLGVIWSGGATDYNTVFISRLSISKDNSKSQVFFKVNSLQVDDTAIYYCARTGSGYAMDYWGQGTSVTVSS VL: DIVLTQSPATLSVTPGDRVSLSCRTSHNVNTYLHWYQQKSHESPRLLIKYASQSISEIPSRFSGSGSGTNFTLSINSVETEDFGMYFCHQTNRWPLTFGAGTKLELKR (field: OD450 at 100 nM) = 0.06
